For each record, write down the corresponding N. fowleri ATCC 30808 SI (CC50/IC50).
# System: N. fowleri ATCC® 30808™ trophozoites
# method.description: In vitro amoebicidal activity against N. fowleri trophozoites (alamarBlue), strain ATCC 30808
# Type: cell-based, Naegleria fowleri
# measurement.context: trophozoite stage; selectivity index vs murine macrophages J774
Give bare numbers.

Sample answers from the record:
[
  {
    "compound": "CCCCCCCCCCCCCCCCOP(=O)([O-])OCC[N+](C)(C)C [Miltefosine, reference compound]",
    "N. fowleri ATCC 30808 SI (CC50/IC50)": 3.30
  },
  {
    "compound": "COC(=O)[C@]12CC[C@@H](C)[C@H](C)C1C1=CCC3[C@@]4(C)CC[C@H](OC(=O)CCCC(=O)O)C(C)(C)C4CC[C@@]3(C)[C@]1(C)CC2 (some centres unmarked) [Compound 8, 3-O-(Hemiglutaryl)-methyl ursolate]",
    "N. fowleri ATCC 30808 SI (CC50/IC50)": 1.24
  }
]

Kindly consider the entry below.
query: Output N. fowleri ATCC 30808 SI (CC50/IC50) of COC(=O)[C@]12CC[C@@H](C)[C@H](C)[C@H]1C1=CC[C@@H]3[C@@]4(C)CC[C@H](O)C(C)(C)[C@@H]4CC[C@@]3(C)[C@]1(C)CC2 [Compound 2, methyl ursolate]
result: 1.12
